# Test system: CCRF-CEM lymphoblasts
# PROCEDURE TEXT: Cell cycle analysis by flow cytometry (propidium iodide)
# Format: cell-based, human
# RUN PARAMETERS: 1×IC50, 24 h

{"columns": ["MOLECULE", "TARGET UNDER TEST", "UNITS OF MEASURE", "S, % of positive cells"],
 "data": [
  ["CC(=O)Oc1c(Cn2cc([C@]3(O)CC[C@H]4[C@@H]5CCc6cc(O)ccc6[C@H]5CC[C@@]43C)nn2)cc(C)cc1Cn1cc([C@]2(O)CC[C@H]3[C@@H]4CCc5cc(O)ccc5[C@H]4CC[C@@]32C)nn1", "CCRF-CEM lymphoblasts", "%", 33.88],
  ["C[C@]12CC[C@@H]3c4ccc(O)cc4CC[C@H]3[C@@H]1CC[C@@]2(O)c1cn(Cc2ccc(O)c(Cn3cc([C@]4(O)CC[C@H]5[C@@H]6CCc7cc(O)ccc7[C@H]6CC[C@@]54C)nn3)n2)nn1", "CCRF-CEM lymphoblasts", "%", 28.50],
  ["C[C@]12CC[C@@H]3c4ccc(O)cc4CC[C@H]3[C@@H]1CC[C@@]2(O)c1cn(Cc2cccc(Cn3cc([C@]4(O)CC[C@H]5[C@@H]6CCc7cc(O)ccc7[C@H]6CC[C@@]54C)nn3)n2)nn1 [ED, reference compound]", "CCRF-CEM lymphoblasts", "%", 40.93],
  ["Cc1cc(C)c(Cn2cc([C@]3(O)CC[C@H]4[C@@H]5CCc6cc(O)ccc6[C@H]5CC[C@@]43C)nn2)cc1Cn1cc([C@]2(O)CC[C@H]3[C@@H]4CCc5cc(O)ccc5[C@H]4CC[C@@]32C)nn1", "CCRF-CEM lymphoblasts", "%", 37.90],
  ["CC(=O)Oc1cc(Cn2cc([C@]3(O)CC[C@H]4[C@@H]5CCc6cc(O)ccc6[C@H]5CC[C@@]43C)nn2)cc(Cn2cc([C@]3(O)CC[C@H]4[C@@H]5CCc6cc(O)ccc6[C@H]5CC[C@@]43C)nn2)c1", "CCRF-CEM lymphoblasts", "%", 33.89]
]}
